test system: SH-SY5Y cells; conditions: NOI bioassay cytotoxicity; dosing range all

molecule | IC10, linear transformed
Oc1ccc(Cc2ccc(O)cc2)cc1 [BPF, Bis(4-hydroxyphenyl)methane] | 5.69E-04
CC(C)c1cc(C(C)(C)c2ccc(O)c(C(C)C)c2)ccc1O | 3.61E-05
CC(C)(c1ccc(OCC2CO2)cc1)c1ccc(OCC2CO2)cc1 (stereo not drawn) | 5.73E-05
CC(c1ccccc1)(c1ccc(O)cc1)c1ccc(O)cc1 | 1.06E-04
CC(C)(c1ccc(O)cc1)c1ccc(O)cc1 [BPA, 4,4'-(Propane-2,2-diyl)diphenol, reference compound] | 2.37E-04
O=C(OCc1ccccc1)c1ccc(O)cc1 [BzPB, Benzyl 4-hydroxybenzoate] | 3.89E-04

---

Tested on: HEK293T (ERα)
Conditions: cytotoxicity, HEK293 (ERα assay cells)
Description: Cell culture conditions and bioassay protocols including response detection are provided in Text S2.1–2.4 and Table S3. − Cell viability was determined from cell confluency using an IncuCyte S3 Live-Cell Analysis System (Sartorius AG, Essen, Germany) before and after exposure, except for SH-SY5Y cells (live–dead staining with Nuclear Green LcS1 and propidium iodide, Abcam, UK). […]
Below, each entry is listed alongside its reported IC10, HEK293, ERα.

compound | IC10, HEK293, ERα, µM
CC(C)(c1ccc(OCC2CO2)cc1)c1ccc(OCC2CO2)cc1 (stereo not shown) | 18.8
O=S(=O)(c1ccc(O)cc1)c1ccc(O)cc1 | 520
Cc1ccc(S(=O)(=O)NC(=O)Nc2cccc(OS(=O)(=O)c3ccc(C)cc3)c2)cc1 | 12.1
O=C(OCc1ccccc1)c1ccc(O)cc1 [BzPB, Benzyl 4-hydroxybenzoate] | 42.1

---

Test system: ERα
Assay: Literature ERα reporter gene assays (comparison)
Type: cell-based
Conditions: approximated from literature EC50; ref Pelch et al 2019; in M (unit assumed)
Method: S5.4: Comparison with literature data for ERα reporter gene assays To improve data comparability with our own results we converted reported EC₅₀ to EC₁₀ by dividing by 9, which is the ratio for log-logistic concentration-response curves with a hillslope of 1 (Figure S9a). Additionally, REPBPA values were calculated to enable a more consistent evaluation. […]
Catalogue of EC10, approx. values
endpoint.label: EC10, approx.

compound | endpoint.label | result
CC(C)(c1ccc(O)cc1)c1ccc(O)cc1 [BPA, 4,4'-(Propane-2,2-diyl)diphenol, reference compound] | EC10, approx. | ~1.33E-07
CCC(C)(c1ccc(O)cc1)c1ccc(O)cc1 | EC10, approx. | ~3.56E-08
O=S(=O)(c1ccc(O)cc1)c1ccc(O)cc1 | EC10, approx. | ~1.44E-07
Oc1ccc(C(c2ccc(O)cc2)(C(F)(F)F)C(F)(F)F)cc1 | EC10, approx. | ~1.44E-08
Oc1ccc(Cc2ccc(O)cc2)cc1 [BPF, Bis(4-hydroxyphenyl)methane] | EC10, approx. | ~1.78E-07

---

system: H4IIe (AhR CALUX); conditions: Bioassay AhR; cytotoxicity; dosing range all; linear model fit

compound | IC10, linear
CCC(C)(c1ccc(O)cc1)c1ccc(O)cc1 | 6.98E-05
CC1(C)C(O)C(C)(C)C1O (racemic) | 8.29E-03
CC(C)(c1ccc(O)c(-c2ccccc2)c1)c1ccc(O)c(-c2ccccc2)c1 [BPPH, 2,2-Bis(2-hydroxy-5-biphenylyl)propane] | 1.29E-05
Oc1ccc(C2(c3ccc(O)cc3)CCCCC2)cc1 [BPZ, 1,1'-Bis(4-hydroxyphenyl)cyclohexane] | 1.06E-04
Oc1ccc(Cc2ccc(O)cc2)cc1 [BPF, Bis(4-hydroxyphenyl)methane] | 2.92E-04
COC(=O)C(c1ccc(O)cc1)c1ccc(O)cc1 [Bz, Methyl bis(4-hydroxyphenyl)acetate] | 1.09E-04
O=S(=O)(c1ccc(O)cc1)c1ccc(OCc2ccccc2)cc1 [BPS-MPE, 4-[4-(benzyloxy)benzenesulfonyl]phenol] | 5.18E-05
CC(c1ccc(O)cc1)c1ccc(O)cc1 | 8.43E-05
C=CCOc1ccc(S(=O)(=O)c2ccc(O)cc2)cc1 [BPS-MAE, 4-[[4-(Allyloxy)phenyl]sulfonyl]phenol] | 8.24E-05
CC(C)c1cc(C(C)(C)c2ccc(O)c(C(C)C)c2)ccc1O | 2.10E-05
Oc1ccc(C(c2ccc(O)cc2)(C(F)(F)F)C(F)(F)F)cc1 | 3.11E-05
O=C(OCc1ccccc1)c1ccc(O)cc1 [BzPB, Benzyl 4-hydroxybenzoate] | 1.74E-04
Oc1ccc(Sc2ccc(O)cc2)cc1 | 5.00E-05
Cc1cc(Cc2cc(C)c(O)c(C)c2)cc(C)c1O [TMBPF, Bis(3,5-dimethyl-4-hydroxyphenyl)methane] | 1.11E-04
CC1(C)[C@H](O)C(C)(C)[C@H]1O [Trans TMCD] | 8.94E-03
